Experiment: Film morphology of agent in PLGA 85/15 film cast from anisole
Assay type: physicochemical
Conditions: 25% agent in PLGA 85/15 film cast from anisole
attribute.measured: Film Morphology

molecule | attribute.measured | result
CC[C@@H]1/C=C(\C)C[C@H](C)C[C@H](OC)[C@H]2O[C@@](O)(C(=O)C(=O)N3CCCC[C@H]3C(=O)O[C@H](/C(C)=C/[C@@H]3CC[C@H](Cl)[C@H](OC)C3)[C@H](C)[C@@H](O)CC1=O)[C@H](C)C[C@@H]2OC [Pimecrolimus, reference compound] | Film Morphology | Mixed
Cc1cc(C(C)(C)C)c(O)c(C(C)(C)C)c1 [BHT, butylated hydroxy toluene] | Film Morphology | A
CCCOC(=O)c1ccc(O)cc1 [Propyl 4-hydroxybenzoate] | Film Morphology | Mixed
CCCCOC(=O)c1ccc(O)cc1 [Butyl 4-Hydroxybenzoate] | Film Morphology | A
